Target: T1, human calcitonin receptor (human, UniProt P30988 25-474)
T1 sequence (looked up): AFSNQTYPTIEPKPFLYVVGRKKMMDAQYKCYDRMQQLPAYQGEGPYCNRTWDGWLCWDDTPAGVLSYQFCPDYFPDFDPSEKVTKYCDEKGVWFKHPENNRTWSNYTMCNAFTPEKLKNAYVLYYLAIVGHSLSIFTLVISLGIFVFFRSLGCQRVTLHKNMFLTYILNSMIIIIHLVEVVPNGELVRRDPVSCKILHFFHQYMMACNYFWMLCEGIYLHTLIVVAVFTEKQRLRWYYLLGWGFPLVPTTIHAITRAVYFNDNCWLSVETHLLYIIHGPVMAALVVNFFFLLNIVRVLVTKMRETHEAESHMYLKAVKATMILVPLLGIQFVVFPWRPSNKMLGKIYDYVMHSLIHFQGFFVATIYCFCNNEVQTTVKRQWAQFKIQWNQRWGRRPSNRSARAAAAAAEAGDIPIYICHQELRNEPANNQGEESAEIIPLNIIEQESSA
Experiment: cell-based or functional assay
Numbered stars: 1 amine (or outer) side, 2 acyl side, 3 side chain; on linkers, the order of the positions; unused ones are H or OH. Bridge positions count the residues as written; N and C are the ends. Side chains are listed from the residue outwards. Ends that are not written are not given here. * marks the point of attachment. C20 diacid = O=C(O)CCCCCCCCCCCCCCCCCCC(=O)*; γGlu = O=C(O)[C@H](CCC(=O)[*:2])N[*:1]
endpoint: hCTR funct. EC50 (pM)

K([γGlu-γGlu-C20 diacid])CNTATCATQRLAEFLRHSSPNFGAILSSTPVGPETY-NH2 (disulfide 2-7 (inferred)) :: 1280

(P) K([γGlu-γGlu-C20 diacid])CNTATCATQRLANFLRHSSPNFGAIPSSTPVGPRTY-NH2 (disulfide 2-7 (inferred))
(Q) K([γGlu-γGlu-C20 diacid])CNTATCATQRLAEFLRHSSPNFGAIPSSTNVGPETP-NH2 (disulfide 2-7 (inferred))
Enquiry: Which record would sort first by descending hCTR funct. EC50 (pM), P or Q ? Give the label under which the chosen entry appears.
Return: P
